Field pKi: reported value for 5-hydroxytryptamine receptor 2A (Rattus norvegicus); entries drawn from several documents.
pKi: −log10 of the molar value.
measured.metric: pKi

c1ccc(C2Oc3ccccc3OC2COCCCCCN2CCC(c3nc4ccccc4s3)CC2)cc1 (configuration not stated) | 6.83

(A) Cc1cccc(OCCNCCCCN2C(=O)C3CCCN3C2=O)c1C (configuration not stated)
(B) Cn1c(=O)c2c(nc(N3CCOCC3)n2CCCCN2CCN(c3cccc(Cl)c3)CC2)n(C)c1=O
Request: Which is greater in pKi, the first item A or the second item B ? # reply format: chosen label
Result: B
(B: 7.68, A: 6.51)

(a) NCC1c2ccccc2CCc2cc(CCCc3ccccc3)ccc21 (configuration not stated)
(b) Cc1cc(=O)oc2cc(OCCCN3CCN(c4ccccc4)CC3)ccc12
Request: Select one: a or b . Criterion: greater recorded pKi. Which one? Tell me its label.
Result: a
(a: 7.09, b: 6.03)
